Tested on: 266 human PDZ domains (PDZome)
Assay: Holdup assay (chromatographic retention, PDZome-binding profile, BI)
Set-up: key: binding intensity: 0.00 = no binding, 1.00 = maximal binding
Conditions: PDZ domain PDZD4-1
*1 amine or outer side, *2 acyl side, *3 side chain or, on linkers, in order; H or OH if unused. Where a SMILES comes first, the peptide text is derived from it. The star is where a group is joined. X1 = O=C(CCCC[C@@H]1SC[C@@H]2NC(=O)N[C@@H]21)NCCCOCCOCCOCCCN*; Suc = O=C(CCC(=O)[*:2])[*:1]
Each entry below carries its recorded BI.

Below, 2 compounds whose answers are already recorded.
{"columns": ["compound", "BI"],
 "data": [
  ["CC[C@H](C)[C@H](NC(=O)[C@H](CCC(N)=O)NC(=O)[C@@H](NC(=O)[C@H](Cc1c[nH]cn1)NC(=O)[C@H](CCC(N)=O)NC(=O)[C@H](CC(=O)O)NC(=O)[C@H](CCC(=O)O)NC(=O)[C@H](CC(=O)O)NC(=O)CCC(=O)NCCCOCCOCCOCCCNC(=O)CCCC[C@@H]1SC[C@@H]2NC(=O)N[C@@H]21)[C@@H](C)O)C(=O)N[C@H](C(=O)N[C@@H](CCCCN)C(=O)N[C@H](C(=O)O)C(C)C)[C@@H](C)O [PTEN_11]", 0.019],
  ["CC[C@H](C)[C@H](NC(=O)[C@H](CCC(N)=O)NC(=O)[C@@H](NC(=O)[C@H](Cc1c[nH]cn1)NC(=O)[C@H](CCC(N)=O)NC(=O)[C@H](CC(=O)O)NC(=O)[C@H](CCC(=O)O)NC(=O)[C@H](CC(=O)O)NC(=O)CCC(=O)NCCCOCCOCCOCCCNC(=O)CCCC[C@@H]1SC[C@@H]2NC(=O)N[C@@H]21)[C@@H](C)O)C(=O)N[C@H](C(=O)N[C@@H](CCCNC(=N)N)C(=O)N[C@H](C(=O)O)C(C)C)[C@@H](C)O [PTEN_KR] ({X1-Suc}-DEDQHTQITRV-OH)", 0.031]
]}

## Input Query BI for CC[C@H](C)[C@H](NC(=O)[C@H](CCC(N)=O)NC(=O)[C@@H](NC(=O)[C@H](Cc1c[nH]cn1)NC(=O)[C@H](CCC(N)=O)NC(=O)[C@H](CC(=O)O)NC(=O)[C@H](CCC(=O)O)NC(=O)[C@H](CC(=O)O)NC(=O)CCC(=O)NCCCOCCOCCOCCCNC(=O)CCCC[C@@H]1SC[C@@H]2NC(=O)N[C@@H]21)[C@@H](C)O)C(=O)N[C@H](C(=O)N[C@@H](CCCCNC(C)=O)C(=O)N[C@H](C(=O)O)C(C)C)[C@@H](C)O [PTEN_Ac]
## Output 0.085

## Input Query BI for CC[C@H](C)[C@H](NC(=O)[C@H](CCC(N)=O)NC(=O)[C@@H](NC(=O)[C@H](Cc1c[nH]cn1)NC(=O)[C@H](CCC(N)=O)NC(=O)[C@H](CC(=O)O)NC(=O)[C@H](CCC(=O)O)NC(=O)[C@H](CC(=O)O)NC(=O)[C@H](Cc1ccccc1)NC(=O)[C@@H]1CCCN1C(=O)CCC(=O)NCCCOCCOCCOCCCNC(=O)CCCC[C@@H]1SC[C@@H]2NC(=O)N[C@@H]21)[C@@H](C)O)C(=O)N[C@H](C(=O)N[C@@H](CCCCN)C(=O)N[C@H](C(=O)O)C(C)C)[C@@H](C)O [PTEN_13] ({X1-Suc}-PFDEDQHTQITKV-OH)
## Output 0.025
